# subjectOfTest: UniProt:Q865E1
# Sequence (Q865E1 whole entry): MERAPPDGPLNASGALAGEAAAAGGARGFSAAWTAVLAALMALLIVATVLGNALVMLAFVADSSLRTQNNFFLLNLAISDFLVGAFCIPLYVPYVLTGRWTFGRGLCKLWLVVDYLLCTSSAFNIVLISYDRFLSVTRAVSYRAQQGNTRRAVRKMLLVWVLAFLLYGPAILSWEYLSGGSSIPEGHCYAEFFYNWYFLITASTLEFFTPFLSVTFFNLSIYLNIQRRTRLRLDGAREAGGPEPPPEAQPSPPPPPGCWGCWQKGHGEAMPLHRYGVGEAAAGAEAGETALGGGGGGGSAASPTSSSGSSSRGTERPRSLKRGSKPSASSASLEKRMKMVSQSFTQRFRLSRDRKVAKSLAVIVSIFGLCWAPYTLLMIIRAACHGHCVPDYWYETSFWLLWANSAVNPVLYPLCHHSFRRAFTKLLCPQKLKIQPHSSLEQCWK
# testProtocol: Displacement of [3H]N-alpha-methylhistamine from cloned rhesus monkey histamine H3 receptor transfected in CHO cells after 1 hr by scintillation counting analysis
measurementKind: Ki (nM)

Worked cases, Ki given:
| compound | unit | Ki |
| --- | --- | --- |
| CC1CCCN1C1CCN(c2ccc(NC(=O)NCc3cc(Cl)cc(Cl)c3)cc2)C1 (configuration not stated) | nM | 7.1 |
| Cc1c(Cl)cc(NC(=O)Nc2ccc(OCCCN3CCCCC3)cc2)cc1Cl | nM | 18.2 |
| CC1CCCN1C1CCN(c2ccc(NC(=O)NCc3cccs3)cc2)C1 (configuration not stated) | nM | 1.9 |

(P) CC1CCCN1C1CCN(c2ccc(NC(=O)Nc3ccc(Oc4ccccc4)cc3)cc2)C1 (configuration not stated)
(Q) CCN(CC)CCOc1ccc(NC(=S)Nc2ccc(OCC(C)C)cc2)cc1
(R) Cc1cc(NC(=O)Nc2ccc(Oc3ccccc3)cc2)ccc1N1CCC(N2CCCC2C)C1 (configuration not stated)
(S) O=C(Nc1ccc(OCCCN2CCCCC2)cc1)Nc1ccc(F)cc1F
Order these by Ki, descending, and give the full ranking. Sort and list the labels as requested. R, P, Q, S
